Data credit: PubChem BioAssay

test: differential killing of epithelial or mesenchymal cells, primary screen, imaging, PC-3E GFP, TEM4-18 mCherry, co-culture (AID 1345086); conditions: imaging cell counts, at 1 µM, actives lie on both sides, counts scaled to control wells, 1 = unselective;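 further: normalised mesenchymal count divided by normalised epithelial count so high means epithelial killing; cells exposed to compound for 72 h before imaging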
experimentalEndpoint: red/green cell ratio (normalised)

• CCOc1ccc(C(=O)c2ccc(O)c(O)c2O)cc1 = 0.88
• NC(=O)CCCCC1CCSS1 (stereo not drawn) = 1.02
• CCCOc1cc(N)ccc1C(=O)OCCN(CC)CC = 1

* * *

experiment: HTB85 osteosarcoma cell growth inhibition, synergistic combos for chromothripsis tumors, BGB or cisplatin IC20 combos (AID 1671453); conditions: HTB85 osteosarcoma cells, drug combinations, at 0.5 µM, active compounds read high;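 further: cells exposed for 96 hours before readout; 0% = vehicle DMSO and 100% = high DMSO killing control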
Active and inactive are the calls of the source. No stated cut-off is given here; in the data, active means inhibition above about 80%; inactive means the rest.
experimentalEndpoint: inhibition

• Cc1ccc2nc(N)[nH]c(=O)c2c1Sc1ccncc1 = -33.1% (inactive)
• CN1CCN(c2c(F)cc3c(=O)c(C(=O)O)cn(CCF)c3c2F)CC1 = 2.85% (inactive)
• O=c1cc[nH]c(=O)[nH]1 = -37.5% (inactive)
• CCOC(=O)Nc1ccc(NCc2ccc(F)cc2)nc1N = 21.2% (inactive)
• O=c1[nH]c(=O)n([C@H]2C[C@H](O)[C@@H](CO)O2)cc1Br = -5% (inactive)

* * *

test: growth inhibition of DIPG glioma cells, dose response, cell-based, SU-DIPG-XIII, MIPE5.0, CellTiter-Glo, qHTS (AID 1347064); settings: SU-DIPG-XIII viability, CellTiter-Glo ATP luminescence;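 on AC50: cells exposed to compound for 48 hours before the viability read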
Results filed as inconclusive are left out. Calls of active or inactive are those of the source. No cut-off is given here; in the data, nearly all actives have AC50 up to about 23 µM.
Outcomes: active, inactive

* NC(=O)c1ncn([C@@H]2O[C@H](CO)[C@@H](O)[C@H]2O)c1N | inactive
* COC(=O)C1=C(C)NC(C)=C(C(=O)OCCN2CCN(C(c3ccccc3)c3ccccc3)CC2)C1c1cccc([N+](=O)[O-])c1 (stereo unspecified) | active
* Nc1ccn(C2CO[C@H](CO)O2)c(=O)n1 (stereo partly specified) | inactive
* CCS(=O)(=O)Nc1ccc2[nH]c(O)c(C(=Nc3ccc(CN4CCCCC4)cc3)c3ccccc3)c2c1 | active
* N#Cc1c(N(CC(=O)O)CC(=O)O)sc(C(=O)O)c1CC(=O)O | inactive
* O=C(NCC1CCCCN1)c1cc(OCC(F)(F)F)ccc1OCC(F)(F)F (stereo unspecified) | inactive
* CC(=O)NCCCS(=O)(=O)O | inactive
* NCCCC(N)(C(=O)O)C(F)F (stereo unspecified) | inactive
* NCCCC(O)(P(=O)(O)O)P(=O)(O)O | inactive
* CC/C(=C(\c1ccccc1)c1ccc(OCCN(C)C)cc1)c1ccccc1 | active
* CN1C2CCC1CC(OC(=O)C(CO)c1ccccc1)C2 (stereo unspecified) | inactive
* Cc1ccc(Nc2nccc(N(C)c3ccc4c(C)n(C)nc4c3)n2)cc1S(N)(=O)=O | active
* CCC(C)(Oc1ccc(C2(c3ccc(OC(C)(CC)C(=O)O)cc3)CCCCC2)cc1)C(=O)O (stereo unspecified) | inactive
* CC(C)(Oc1ccc(C2CC2(Cl)Cl)cc1)C(=O)O (stereo unspecified) | inactive
* CC(C(=O)O)c1ccc2c(c1)CC(=O)c1ccccc1S2 (stereo unspecified) | inactive
* Nc1cc(C(Cl)=C(Cl)Cl)c(S(N)(=O)=O)cc1S(N)(=O)=O | inactive
